test: growth suppression of yeast trafficking mutant, preliminary HTS, modulators of trafficking downstream of Golgi apparatus project, 1536-format plate, OD 615 nm (AID 637); conditions: yeast transport mutant growth, absorbance 615 nm, 18 h; stronger effect = higher value
The source made the active and inactive calls. Cut-off read from the data, not from the text of the source: active = inhibition above about 30%; inactive = the rest.
I'd be grateful if you could share measured inhibition for these entries.

Tell me its inhibition given Cc1ccc(-c2nnn(CC(=O)N(CC(=O)NC3CCCCC3)c3cnc4ccccc4c3)n2)o1 as the entry.
-1.61% (inactive)

Tell me its inhibition given CCOC(=O)C1CCN(C(=O)C2CCN(S(=O)(=O)c3cc(Cl)ccc3Cl)CC2)CC1 as the entry.
0.48% (inactive)

Tell me its inhibition given CCOc1ccc(C(=O)N2CCN(C(=O)c3ccco3)CC2)cc1OCC as the entry.
-0.79% (inactive)

Tell me its inhibition given CCOC(=O)c1cc(CC)sc1NC(=O)CCC(=O)O as the entry.
0.32% (inactive)

Tell me its inhibition given CC(C(=O)N1CCCCC1)n1sc2ccccc2c1=O (configuration not stated) as the entry.
11.4% (inactive)

Tell me its inhibition given OC(COc1ccc2ccccc2c1)CN1CCOCC1 (configuration not stated) as the entry.
0.66% (inactive)

Tell me its inhibition given COC(=O)c1ccccc1NC(=O)c1noc2c1CCC2 as the entry.
2.55% (inactive)

Tell me its inhibition given CS(=O)(=O)Nc1ccc(C(=O)NCCc2ccccc2)cc1 as the entry.
-3.55% (inactive)

Tell me its inhibition given COc1ccccc1Nc1nc(N)nc(CSc2nccc(C)n2)n1 as the entry.
0% (inactive)

Tell me its inhibition given CCC1(CC)NC(=O)NC1=O as the entry.
3.11% (inactive)

Tell me its inhibition given COc1cc(S(=O)(=O)N2CCC(N3CCCCC3)CC2)ccc1-n1cnnn1 as the entry.
-6.35% (inactive)

Tell me its inhibition given CCC1CCCN1Cn1cnc2c([nH]c3ccc(OC)cc32)c1=O (configuration not stated) as the entry.
2.42% (inactive)

====

experiment: RAM signaling pathway blockade in yeast – S. cerevisiae, Pdr1DBD-CYC8 efflux-inhibited sensitized strain, primary screen (AID 1298);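 note: 0% = DMSO untreated cells without growth and 100% = 10 µM 1-NA-PP1 full growth; higher means more yeast growth rescued from 5-FOA killing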; settings: S. cerevisiae cbk1-as DSE1-URA3 strain, 5-FOA growth OD615, 2 d; at 50 µM; stronger effect = higher value
result.type: RAM network inhibition (%)
// return numeric value only (unit: %, not printed)

Tell me its RAM network inhibition given CCOc1ccc2nc(N3CCC(C(=O)N4CCN(c5ccccn5)CC4)CC3)sc2c1 as the entry.
2.36

Tell me its RAM network inhibition given COc1cccc(-c2cc(C(=O)Nn3cnnc3)c3ccccc3n2)c1 as the entry.
3.38

Tell me its RAM network inhibition given CC1CN(C(=O)c2cc3ccccc3oc2=O)CC(C)O1 (stereo not drawn) as the entry.
2.33

Tell me its RAM network inhibition given CCOc1cc(-c2nc(-c3ccncc3)no2)cc(OCC)c1OCC as the entry.
5.16

Tell me its RAM network inhibition given CC(C)(C)c1ccc(OCC(=O)N2CCN(C=O)CC2)cc1 as the entry.
0.67

Tell me its RAM network inhibition given O=C(Nc1nc2ccccc2n1CCN1CCCC1)c1ccc(Cl)cc1 as the entry.
4.6

Tell me its RAM network inhibition given CC1CCCC(C)N1C(=O)Cn1c(=O)sc2ccccc21 (stereo not drawn) as the entry.
4.18

Tell me its RAM network inhibition given CC(=O)c1ccc(NC(=O)CN2C(=O)COc3ccc(Cl)cc32)cc1 as the entry.
5.11

Tell me its RAM network inhibition given COc1ccc(N(CC(=O)NC2CCCCC2)S(=O)(=O)c2cccnc2)cc1 as the entry.
2.86

Tell me its RAM network inhibition given CC(CCc1ccccc1)NC(=O)CSc1nnnn1C (stereo not drawn) as the entry.
4.5

Tell me its RAM network inhibition given Cc1ccc(N2C(=O)c3oc4ccccc4c(=O)c3C2c2cccnc2)nc1 (stereo not drawn) as the entry.
5.38

Tell me its RAM network inhibition given O=C(OCCOCCN=C1NS(=O)(=O)c2ccccc21)C1CC(=O)N(c2ccccc2)C1 (stereo not drawn) as the entry.
1.23

Tell me its RAM network inhibition given CCOC(=O)CCc1n[nH]c(=O)[nH]c1=O as the entry.
0

Tell me its RAM network inhibition given CSc1oc(-c2ccc(F)cc2)nc1S(=O)(=O)c1ccc(F)cc1 as the entry.
4.1

Tell me its RAM network inhibition given CCN1CCN(C(=O)C2c3cc(OC)c(OC)cc3C(=O)N(C)C2c2ccc(SC)cc2)CC1 (stereo not drawn) as the entry.
2.33

Tell me its RAM network inhibition given C/C(=C1\SC(N2CCOCC2)=NC1=O)c1ccccc1 as the entry.
1.09

Tell me its RAM network inhibition given O=C(NC1CC1)c1ccc(CS(=O)(=O)c2c(Cl)cccc2Cl)o1 as the entry.
4.31

Tell me its RAM network inhibition given CCCCOC(=O)c1ccc(NS(=O)(=O)c2cc(-c3nnnn3CC)ccc2OC)cc1 as the entry.
4.7

Tell me its RAM network inhibition given CC1CN(C(c2cccs2)c2sc3ncnn3c2O)CC(C)O1 (stereo not drawn) as the entry.
4.47

Tell me its RAM network inhibition given Cc1ccc(S(=O)(=O)c2nc(-c3ccc(F)cc3)oc2SCC(N)=O)cc1 as the entry.
1.2

Tell me its RAM network inhibition given O=C1c2ccccc2C(=O)N1CSc1nnnn1-c1ccccc1 as the entry.
6.61

Tell me its RAM network inhibition given Cc1cc(Nc2ccc(F)cc2Cl)n2nc(C)nc2n1 as the entry.
2.31

Tell me its RAM network inhibition given O=C(CSc1nc2ccccc2[nH]1)Nc1ccc(F)cc1 as the entry.
5.07

====

test: HUVEC growth inhibition – cell-based, human, primary screen (AID 575); conditions: HUVEC proliferation, CellTiter-Glo luminescence, 72 h; at 10 µM; stronger effect = lower value;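 note: 100% = median of untreated cell wells with 0.1% DMSO on each plate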
result.type: viability (%)
// return numeric value only (unit: %, not printed)

Tell me its viability given Cc1nn(C)c(C)c1S(=O)(=O)N1CCCC(C(=O)N2CCN(c3ccc(Cl)cc3)CC2)C1 (stereo unspecified) as the entry.
87.7

Tell me its viability given COc1ccc(OC)c(NC(=O)CSc2ncccc2C(=O)O)c1 as the entry.
100

Tell me its viability given CCOc1cccc(-c2nnc3sc(COc4ccc(OC)cc4)nn23)c1 as the entry.
68.3

Tell me its viability given CC(C)(C)NC[C@H](O)COc1nsnc1N1CCOCC1 as the entry.
99.8

Tell me its viability given Cc1ccc(S(=O)(=O)NCC(=O)N(CC(=O)NC2CCCCC2)Cc2ccco2)cc1 as the entry.
91

Tell me its viability given CC(=O)c1ccc(Oc2cc(C)nc(-n3nc(C)cc3C)n2)cc1 as the entry.
51.7

Tell me its viability given CCCn1c(O)c(CN2CCCC(C)C2)c(C)c(C#N)c1=O (stereo unspecified) as the entry.
86.8

Tell me its viability given Cc1nnc2n(-c3ccccc3)c(=O)c3c4c(sc3n12)CCCC4 as the entry.
96.2

Tell me its viability given CCOC(=O)CNC(=O)C(Cc1ccccc1)NS(=O)(=O)c1ccc2c(c1)CCC(=O)N2 (stereo unspecified) as the entry.
92.8

Tell me its viability given Cn1c(=O)n(Cc2ccc(F)cc2)c(=O)c2c1nc1n2CCCN1Cc1ccccc1 as the entry.
78.4

Tell me its viability given CCCc1nc(N2CCOCC2)c(C#N)c2c1CCCC2 as the entry.
81.5

====

assay: reversal of MRP1-mediated doxorubicin resistance, pilot screen, H69AR cells, doxorubicin co-treatment (AID 601); settings: H69AR cells + 2 uM doxorubicin, CellTiter-Glo, 72 h; measured here: viability with 2 uM doxorubicin; at 10 µM; stronger effect = lower value
Sorting guide: entries reporting viability beneath 90% go in the Fulfilled pile, the rest go in the Not fulfilled pile.

Lab log: compare recorded viability with 90%; is it strictly lower for CCOc1ccc2nc(SCC#N)c(C#N)cc2c1 ?
Fulfilled

Lab log: compare recorded viability with 90%; is it strictly lower for CS(=O)(=O)C1=C(O)C(=O)N(c2ccccc2)C1c1ccccc1 (stereo unspecified) ?
Not fulfilled

Lab log: compare recorded viability with 90%; is it strictly lower for Cc1c(=O)n(OCc2ccccn2)c2ccccc2[n+]1[O-] ?
Fulfilled

Lab log: compare recorded viability with 90%; is it strictly lower for CCOc1cc(S(=O)(=O)Nc2ccccn2)ccc1F ?
Not fulfilled

Lab log: compare recorded viability with 90%; is it strictly lower for Cc1c(NC(=O)CN2c3cccc4cccc(c34)S2(=O)=O)c(=O)n(-c2ccccc2)n1C ?
Fulfilled

Lab log: compare recorded viability with 90%; is it strictly lower for Cc1cc(C)n2nc(C(=O)NCc3ccco3)nc2n1 ?
Not fulfilled

Lab log: compare recorded viability with 90%; is it strictly lower for Cc1ccccc1-n1c(=O)c2ccccc2n2nnnc12 ?
Not fulfilled

Lab log: compare recorded viability with 90%; is it strictly lower for CCOc1ccccc1NC(=O)NC1CCN(CC(=O)Nc2ccc3c(c2)OCCO3)CC1 ?
Not fulfilled
